TARGET_SYSTEM: CHO-CHOP luciferase reporter, UPR apoptotic arm activation
PROCEDURE_TEXT: activators of PERK-eIF2a-CHOP apoptotic UPR arm, SAR follow-up, cell-based, CHO-CHOP line, luminescence, set 2 (AID 588594)
Activity calls are given as the source filed them.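 The calls were made as follows: active = mean EC50 of 20 µM or lower; inactive = the rest.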
READOUT_NAME: EC50

{"COMPOUND": "Cn1c([N+](=O)[O-])cnc1C(=O)Nc1ccc(S(=O)(=O)N2CCC(C)(C)CC2)cc1", "READOUT_NAME": "EC50", "DATA_VALUE": "> 77.5 µM (inactive)"}
{"COMPOUND": "O=C(Nc1nc2cccc(F)c2s1)c1ccccn1", "READOUT_NAME": "EC50", "DATA_VALUE": "7 µM"}
{"COMPOUND": "CC1(C)CCN(S(=O)(=O)c2ccc(NC(=O)c3ccc(C(F)(F)F)o3)cc2)CC1", "READOUT_NAME": "EC50", "DATA_VALUE": "> 80 µM (inactive)"}
{"COMPOUND": "O=C(Nc1nc2cc(F)cc(F)c2s1)c1ccccn1", "READOUT_NAME": "EC50", "DATA_VALUE": "6.87 µM"}
{"COMPOUND": "O=C(Nc1ccc(S(=O)(=O)C2CCOCC2)cc1)c1ccc([N+](=O)[O-])o1", "READOUT_NAME": "EC50", "DATA_VALUE": "1.19 µM"}
{"COMPOUND": "O=C(Nc1nc2ccc(F)c(F)c2s1)c1ccccn1", "READOUT_NAME": "EC50", "DATA_VALUE": "5.59 µM"}
{"COMPOUND": "CC1CN(S(=O)(=O)c2ccc(NC(=O)c3ccc([N+](=O)[O-])o3)cc2)CC(C)O1 (configuration not stated)", "READOUT_NAME": "EC50", "DATA_VALUE": "1.36 µM"}

// data source = PubChem BioAssay AID588594
